- Test system: ID8 murine ovarian cancer cell line
- measurement description: Cytotoxicity of third-generation taxoids, ID8
- Assay type: cell-based
- particulars: ID8 cells
measured parameter: IC50 (nM)
One number for each entry, in nM.

Please review the entries below; each comes with its answer.
[
  {
    "compound": "C=C(C)CC(NC(=O)OC(C)(C)C)C(O)C(=O)OC1CC2(O)C(OC(=O)c3cccc(OC(F)F)c3)C3C4(OC(C)=O)COC4CC(O)C3(C)C(=O)C(OC(C)=O)C(=C1C)C2(C)C (stereo not shown)",
    "IC50 / nM": 0.35
  },
  {
    "compound": "C=C(C)CC(NC(=O)OC(C)(C)C)C(O)C(=O)OC1CC2(O)C(OC(=O)c3cccc(OC(F)(F)F)c3)C3C4(OC(C)=O)COC4CC(O)C3(C)C(=O)C(OC(C)=O)C(=C1C)C2(C)C (stereo not shown)",
    "IC50 / nM": 0.23
  },
  {
    "compound": "C=C(C)CC(NC(=O)OC(C)(C)C)C(O)C(=O)OC1CC2(O)C(OC(=O)c3cccc(OC(F)(F)F)c3)C3C4(OC(C)=O)COC4CC(O)C3(C)C(=O)C(OC)C(=C1C)C2(C)C (stereo not shown)",
    "IC50 / nM": 1.43
  }
]

# ---- query compound ----
Sample C=C(C)CC(NC(=O)OC(C)(C)C)C(O)C(=O)OC1CC2(O)C(OC(=O)c3cccc(OC(F)(F)F)c3)C3C4(OC(C)=O)COC4CC(O)C3(C)C(=O)C(OC(=O)N(C)C)C(=C1C)C2(C)C (stereo not shown) , system: ID8 murine ovarian cancer cell line. Its IC50 is 0.25

---

- System: MCF7 human breast cancer cell line
- measurement description: Cytotoxicity of third-generation taxoids, MCF7
- Format: cell-based
- particulars: MCF7 cells
Please respond with reported IC50 for every item in the list.
Give bare numbers, in pM.

Please review the entries below; each comes with its answer.
[
  {
    "molecule": "C=C(C)CC(NC(=O)OC(C)(C)C)C(O)C(=O)OC1CC2(O)C(OC(=O)c3cccc(OC(F)(F)F)c3)C3C4(OC(C)=O)COC4CC(O)C3(C)C(=O)C(OC(C)=O)C(=C1C)C2(C)C (stereo not drawn)",
    "test system": "MCF7 human breast cancer cell line",
    "IC50 (pM)": 230
  },
  {
    "molecule": "C=C(C)CC(NC(=O)OC(C)(C)C)C(O)C(=O)OC1CC2(O)C(OC(=O)c3cccc(OC(F)(F)F)c3)C3C4(OC(C)=O)COC4CC(O)C3(C)C(=O)C(OC(=O)OC)C(=C1C)C2(C)C (stereo not drawn)",
    "test system": "MCF7 human breast cancer cell line",
    "IC50 (pM)": 980
  }
]

# ---- query molecule ----
Summary for this molecule, C=C(C)CC(NC(=O)OC(C)(C)C)C(O)C(=O)OC1CC2(O)C(OC(=O)c3cccc(OC(F)F)c3)C3C4(OC(C)=O)COC4CC(O)C3(C)C(=O)C(OC(C)=O)C(=C1C)C2(C)C (stereo not drawn) : IC50 is 310

---

- System: CFPAC-1 human pancreatic cancer cell line
- measurement description: Cytotoxicity of third-generation taxoids, CFPAC-1
- Type: cell-based
- particulars: CFPAC-1 cells
pIC50: −log10 of the molar value.
Label Criterion met when pIC50 is at or above 9; anything below gets Criterion not met.

[
  {
    "molecule": "C=C(C)C[C@H](NC(=O)OC(C)(C)C)[C@@H](O)C(=O)O[C@H]1C[C@@]2(O)[C@@H](OC(=O)c3cccc(OC(F)F)c3)[C@@H]3[C@]4(OC(C)=O)CO[C@@H]4C[C@H](O)[C@@]3(C)C(=O)[C@H](OC(=O)CC)C(=C1C)C2(C)C [SB-T-121306]",
    "group label": "Criterion met"
  },
  {
    "molecule": "C=C(C)CC(NC(=O)OC(C)(C)C)C(O)C(=O)OC1CC2(O)C(OC(=O)c3cccc(OC(F)F)c3)C3C4(OC(C)=O)COC4CC(O)C3(C)C(=O)C(OC(=O)C3CC3)C(=C1C)C2(C)C (stereo not drawn) [SB-T-121406]",
    "group label": "Criterion met"
  },
  {
    "molecule": "C=C(C)CC(NC(=O)OC(C)(C)C)C(O)C(=O)OC1CC2(O)C(OC(=O)c3cccc(OC(F)(F)F)c3)C3C4(OC(C)=O)COC4CC(O)C3(C)C(=O)C(OC)C(=C1C)C2(C)C (stereo not drawn) [SB-T-123005]",
    "group label": "Criterion not met"
  }
]

**Query** Does C=C(C)CC(NC(=O)OC(C)(C)C)C(O)C(=O)OC1CC2(O)C(OC(=O)c3cccc(OC(F)(F)F)c3)C3C4(OC(C)=O)COC4CC(O)C3(C)C(=O)C(OC(C)=O)C(=C1C)C2(C)C (stereo not drawn) [SB-T-121205] have a reported pIC50 of at least 9?
**Result** Criterion met
